# study.target: KRAS-G12D protein (Homo sapiens, UniProt P01116, G12D)
# Construct: host or cells: Aspc-1 cells
# Sequence (P01116 1-188 isoform P01116-2 G12D): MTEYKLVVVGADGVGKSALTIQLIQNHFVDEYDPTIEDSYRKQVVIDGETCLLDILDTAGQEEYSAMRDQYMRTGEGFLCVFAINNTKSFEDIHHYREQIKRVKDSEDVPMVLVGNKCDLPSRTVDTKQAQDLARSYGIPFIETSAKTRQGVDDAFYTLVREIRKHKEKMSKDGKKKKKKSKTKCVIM
# assay.name: KRAS-G12D protein degradation study in Aspc-1 cells (western blot)
# Format: cell-based
# study.conditions: ASPC1, 24 h, Aspc-1 cells treated with 0.1 μM compound, 24 hours; read-out: Rate of protein degradation (KRAS^G12D)
measurement.type: inhibition at 0.1 µM

- C#Cc1c(F)ccc2cc(O)cc(-c3ncc4c(N5CC6CCC(C5)N6)nc(OCC5(CN6CCC(CN7CCN(c8cc9c(cc8F)C(=O)N(C8CCC(=O)NC8=O)C9=O)CC7)CC6)CC5)nc4c3F)c12 (centres unmarked): > 60%

Attention now shifts to the item below.
In: Please give the documented inhibition at 0.1 µM of "C#Cc1c(F)ccc2cc(O)cc(-c3ncc4c(N5CC6CCC(C5)N6)nc(OC5CCN(CCCCCCCCOc6cc(-c7ncsc7C)ccc6CNC(=O)[C@@H]6C[C@@H](O)CN6C(=O)[C@@H](NC(=O)C6(F)CC6)C(C)(C)C)CC5)nc4c3F)c12"
Out: ≤ 10%

----------
# Tested on: Aspc-1 cells
# assay.name: Cell proliferation study in Aspc-1 cells (Cell Titer Glo)
# Type: cell-based
# study.conditions: Homo sapiens, ASPC1, 72 hours, read-out: IC50, inhibitory effect on cellular proliferation
pIC50: −log10 of the molar value.
measurement.type: pIC50

Consider the worked cases shown below.
- C#Cc1c(F)ccc2cc(O)cc(-c3ncc4c(N5CC6CCC(C5)N6)nc(OCC5(CN6CCC7(CC6)CC(N6CCN(c8ccc9c(c8)C(=O)N(C8CCC(=O)NC8=O)C9=O)CC6)C7)CC5)nc4c3F)c12 (centres unmarked): > 7.00
- C#Cc1c(F)ccc2cc(O)cc(-c3ncc4c(N5CC6CCC(C5)N6)nc(OC5CCN(CCCCCCCCCCC(=O)N[C@H](C(=O)N6C[C@H](O)C[C@H]6C(=O)N[C@@H](C)c6ccc(-c7scnc7C)cc6)C(C)(C)C)CC5)nc4c3F)c12: 6.00 to 7.00
- C#Cc1c(F)ccc2cc(O)cc(-c3ncc4c(N5CC6CCC(C5)N6)nc(OCC5(CN6CCC7(CC6)CC(N6CCN(c8ccc(NC9CCC(=O)NC9=O)cc8F)CC6)C7)CC5)nc4c3F)c12 (centres unmarked): > 7.00

# batch size: 2; output pIC50 per entry
1. CCc1c(F)ccc2cc(O)cc(-c3ncc4c(N5CC6CCC(C5)N6)nc(OC[C@@H]5CCCN5C(=O)CCCCCCCC(=O)N[C@H](C(=O)N5C[C@H](O)C[C@H]5C(=O)NCc5ccc(-c6scnc6C)cc5)C(C)(C)C)nc4c3F)c12
2. C#Cc1c(F)ccc2cc(O)cc(-c3ncc4c(N5CC6CCC(C5)N6)nc(OC5CCN(CCCCCCCCCC(=O)N6CCC(c7ccc8c(C9CCC(=O)NC9=O)nn(C)c8c7)CC6)CC5)nc4c3F)c12 (centres unmarked)

Out:
["5.30 to 6.00", "5.30 to 6.00"]

----------
Record form. Attribute: IC50. Fill in for each entry.
# Tested on: Aspc-1 cells
# assay.name: Cell proliferation study in Aspc-1 cells (Cell Titer Glo)
# Format: cell-based
# study.conditions: Homo sapiens, ASPC1, 72 hours, read-out: IC50, inhibitory effect on cellular proliferation

Consider the worked cases shown below.
* C#Cc1c(F)ccc2cc(O)cc(-c3ncc4c(N5CC6CCC(C5)N6)nc(OCC5(CN6CCC7(CC6)CC(N6CCC(c8cccc9c8CN(C8CCC(=O)NC8=O)C9=O)CC6)C7)CC5)nc4c3F)c12 (centres unmarked) | 101 to 1000 nM
* C#Cc1c(F)ccc2cc(O)cc(-c3ncc4c(N5CC6CCC(C5)N6)nc(OCC5(CN6CC7(CC(N8CCC(c9ccc%10c(C%11CCC(=O)NC%11=O)nn(C)c%10c9)CC8)C7)C6)CC5)nc4c3F)c12 (centres unmarked) | < 100 nM
* C#Cc1c(F)ccc2cc(O)cc(-c3ncc4c(N5CC6CCC(C5)N6)nc(OC5CCN(CCCCCCCCCCC(=O)N[C@H](C(=O)N6C[C@H](O)C[C@H]6C(=O)NCc6ccc(-c7scnc7C)cc6)C(C)(C)C)CC5)nc4c3F)c12 | 101 to 1000 nM
* CCc1c(F)ccc2cc(O)cc(-c3ncc4c(N5CC6CCC(C5)N6)nc(OC5CCN(CCCCCCCCCC(=O)N[C@H](C(=O)N6C[C@H](O)C[C@H]6C(=O)NCc6ccc(-c7scnc7C)cc6)C(C)(C)C)CC5)nc4c3F)c12 | 1000 to 5000 nM
* CCc1c(F)ccc2cc(O)cc(-c3ncc4c(N5CC6CCC(C5)N6)nc(OCCCN5CCN(C(=O)CCCCC(=O)N[C@H](C(=O)N6C[C@H](O)C[C@H]6C(=O)NCc6ccc(-c7scnc7C)cc6)C(C)(C)C)CC5)nc4c3F)c12 | 1000 to 5000 nM
* C#Cc1c(F)ccc2cc(O)cc(-c3ncc4c(N5CC6CCC(C5)N6)nc(OCC5(CN6CCC7(CC6)CC(N6CCC(c8ccc9c(c8)n(C)c(=O)n9C8CCC(=O)NC8=O)CC6)C7)CC5)nc4c3F)c12 (centres unmarked) | < 100 nM
* C#Cc1c(F)ccc2cc(O)cc(-c3ncc4c(N5CC6CCC(C5)N6)nc(OC5CCN(CC(=O)N6CCC7(CC6)CC(N6CCC(c8ccc9c(C%10CCC(=O)NC%10=O)nn(C)c9c8)CC6)C7)CC5)nc4c3F)c12 (centres unmarked) | 1000 to 5000 nM
* C#Cc1c(F)ccc2cc(O)cc(-c3ncc4c(N5CC6CCC(C5)N6)nc(OC5CCN(CCCCCCCCCC(=O)N[C@H](C(=O)N6C[C@H](O)C[C@H]6C(=O)NCc6ccc(-c7scnc7C)cc6)C(C)(C)C)CC5)nc4c3F)c12 | 101 to 1000 nM
* C#Cc1c(F)ccc2cc(O)cc(-c3ncc4c(N5CC6CCC(C5)N6)nc(OC5CCN(CCCCCCCC(=O)N[C@H](C(=O)N6C[C@H](O)C[C@H]6C(=O)NCc6ccc(-c7scnc7C)cc6)C(C)(C)C)CC5)nc4c3F)c12 | 5000 to 10000 nM
* C#Cc1c(F)ccc2cc(O)cc(-c3ncc4c(N5CC6CCC(C5)N6)nc(OCCCN5CCN(CCCCCCC(=O)N[C@H](C(=O)N6C[C@H](O)C[C@H]6C(=O)NCc6ccc(-c7scnc7C)cc6)C(C)(C)C)CC5)nc4c3F)c12 | 1000 to 5000 nM

# batch size: 2; output IC50 per entry
1. C#Cc1c(F)ccc2cc(O)cc(-c3ncc4c(N5CC6CCC(C5)N6)nc(OCC5(CN6CCC(CN7CCC(c8ccc9c(c8)CN(C8CCC(=O)NC8=O)C9=O)CC7)CC6)CC5)nc4c3F)c12 (centres unmarked)
2. C#Cc1c(F)ccc2cc(O)cc(-c3ncc4c(N5CC6CCC(C5)N6)nc(OCCCN5CCN(C(=O)CN6CCC(c7ccc8c(C9CCC(=O)NC9=O)nn(C)c8c7)CC6)CC5)nc4c3F)c12 (centres unmarked)

Out:
["< 100 nM", "101 to 1000 nM"]

# batch size: 3; output IC50 per entry
1. CCc1c(F)ccc2cc(O)cc(-c3ncc4c(N5CC6CCC(C5)N6)nc(OCC5(CN6CCC7(CC6)CC(N6CCC(c8ccc9c(C%10CCC(=O)NC%10=O)nn(C)c9c8)CC6)C7)CC5)nc4c3F)c12 (centres unmarked)
2. C#Cc1c(F)ccc2cc(O)cc(-c3ncc4c(N5CC6CCC(C5)N6)nc(OC5CCCN(CCCCCCCCCCC(=O)N[C@H](C(=O)N6C[C@H](O)C[C@H]6C(=O)N[C@@H](C)c6ccc(-c7scnc7C)cc6)C(C)(C)C)C5)nc4c3F)c12 (some centres unmarked)
3. C#Cc1c(F)ccc2cc(O)cc(-c3ncc4c(N5CC6CCC(C5)N6)nc(OCCCN5CCN(CCCCCCCC(=O)N[C@H](C(=O)N6C[C@H](O)C[C@H]6C(=O)NCc6ccc(-c7scnc7C)cc6)C(C)(C)C)CC5)nc4c3F)c12

Out:
1. < 100 nM
2. 1000 to 5000 nM
3. 1000 to 5000 nM

# batch size: 2; output IC50 per entry
1. C#Cc1c(F)ccc2cc(O)cc(-c3ncc4c(N5CC6CCC(C5)N6)nc(OC5CCN(CCCCCCCCCCCCCC(=O)N[C@H](C(=O)N6C[C@H](O)C[C@H]6C(=O)NCc6ccc(-c7scnc7C)cc6)C(C)(C)C)CC5)nc4c3F)c12
2. C#Cc1c(F)ccc2cc(O)cc(-c3ncc4c(N5CC6CCC(C5)N6)nc(OCC5(CN6CCCN(C(=O)CN7CCC(c8ccc9c(C%10CCC(=O)NC%10=O)nn(C)c9c8)CC7)CC6)CC5)nc4c3F)c12 (centres unmarked)

Out:
1. 1000 to 5000 nM
2. < 100 nM

FYI, the data here is from patent US20230321253A1.
